Hello, the source for this data is patent US20100115639A1, in case you need it.

Listing of recorded pIC50 by entry.
- Tested on: T1, recombinant c-Met-Extra-Cellular Domain (ECD) fused to a human IgG1 Fc domain (R&D Systems, 358MT) (human, UniProt P08581 25-932)
- T1 construct: extracellular domain; Bought; bivalent (dimeric) fusion, MW 129 kDa as printed; also called c-Met-Fc; c-Met-Fc-Tag His; not shown: human IgG1 Fc domain
- T1 sequence (P08581 25-932): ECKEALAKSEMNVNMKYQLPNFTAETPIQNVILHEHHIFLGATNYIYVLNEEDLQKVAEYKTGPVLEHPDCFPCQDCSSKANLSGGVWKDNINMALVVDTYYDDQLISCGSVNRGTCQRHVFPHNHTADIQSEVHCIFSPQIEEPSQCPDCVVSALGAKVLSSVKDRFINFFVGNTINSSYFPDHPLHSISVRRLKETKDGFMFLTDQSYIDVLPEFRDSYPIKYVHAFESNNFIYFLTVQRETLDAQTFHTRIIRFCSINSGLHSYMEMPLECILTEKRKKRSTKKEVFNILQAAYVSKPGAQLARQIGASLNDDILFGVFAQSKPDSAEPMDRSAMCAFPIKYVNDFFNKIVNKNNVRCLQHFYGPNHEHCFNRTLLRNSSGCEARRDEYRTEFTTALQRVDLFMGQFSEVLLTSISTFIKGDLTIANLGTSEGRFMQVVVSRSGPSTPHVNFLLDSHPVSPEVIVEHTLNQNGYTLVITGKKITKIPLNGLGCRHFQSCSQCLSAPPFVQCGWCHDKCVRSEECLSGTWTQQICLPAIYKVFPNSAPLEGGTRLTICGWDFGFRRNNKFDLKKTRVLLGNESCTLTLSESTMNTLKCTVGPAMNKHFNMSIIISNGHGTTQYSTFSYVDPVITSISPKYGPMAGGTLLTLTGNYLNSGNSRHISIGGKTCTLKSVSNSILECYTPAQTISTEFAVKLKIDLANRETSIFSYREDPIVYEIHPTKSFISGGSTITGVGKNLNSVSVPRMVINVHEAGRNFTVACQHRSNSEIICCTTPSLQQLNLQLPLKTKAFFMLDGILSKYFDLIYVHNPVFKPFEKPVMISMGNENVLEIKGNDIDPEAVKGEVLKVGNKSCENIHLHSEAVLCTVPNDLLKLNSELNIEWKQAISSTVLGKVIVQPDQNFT
- Measurement notes: displacement of [125I]-HGF from immobilized c-Met-Fc (FlashPlate)
# reply with the number alone; pIC50 is -log10 of concentration in mol/L

Worked cases, pIC50 given:
Name the recorded pIC50 for 11E1 murine monoclonal antibody (antibody, V domains shown, Used as hybridoma supernatant or purified Mab; also called MAb 11E1; CNCM I-3724) VH: QVQLQQSGAELAKPGASVKMSCKASGYTFTSYWMNWVKQRPGQGLEWIGYINPTTGSTDYNQKLKDKATLTADKSSNTAYMQLSSLTSEDSAVYYCAIGGYGSWFAYWGQGTLVTVSA VL: QIVLTQSPAIMSASPGEKVTLTCSASSSVSSTYLYWYQQKPGSSPKLWIYTTSILASGVPARFSGSGSGTSYSLTISSMETEDAASYFCHQWSSYPFTFGSGTKLDIK .
7.70

Field entry: 223C4 murine monoclonal antibody (antibody, mouse IgG1, V domains shown, also called CNCM I-3786) VH: EVLLQQSGPELVKPGASVKIPCKASGYTFTDYNMDWVKQSHGMSLEWIGDINPNNGGTIFNQKFKGKATLTVDKSSSTAYMELRSLTSEDTAVYYCARGRYVGYYYAMDYWGQGTSVTVSS VL: DIQMTQSPASLSVSVGETVTITCRASENIYSNLAWYQQKQGKSPQLLVYAATNLVDGVPSRFSGSGSGTQYSLKINSLQSEDFGSYYCQHFWGPPYTFGGGTKLEIK
8.57

Let's switch to this binder now.
Given the entry 227H1 murine monoclonal antibody (antibody, mouse IgG1, V domains shown, also called CNCM I-3732) VH: EVQLQQSGPELVKPGASMKISCKASGYSFTDYTLNWVKQSHGKTLEWIGLINPYNGGTTYNQKFKGKATLTVDKSSSTAYMELLSLTSEDSAVYYCAREEITKDFDFWGQGTTLTVSS VL: GIVLTQSPASLAVSLGQRATISCRVSESIDTYGNSFIHWYQQKPGQPPKLLIYRASNLESGIPARFSGSGSRTDFTLTINPVEADDSATYYCQQSNEDPFTFGSGTKLEMK , report its measured pIC50.
8.24
